assay_system: Isocitrate dehydrogenase [NADP] cytoplasmic (Homo sapiens, UniProt O75874, R132H)
Sequence (O75874 2-414 R132H limits assumed): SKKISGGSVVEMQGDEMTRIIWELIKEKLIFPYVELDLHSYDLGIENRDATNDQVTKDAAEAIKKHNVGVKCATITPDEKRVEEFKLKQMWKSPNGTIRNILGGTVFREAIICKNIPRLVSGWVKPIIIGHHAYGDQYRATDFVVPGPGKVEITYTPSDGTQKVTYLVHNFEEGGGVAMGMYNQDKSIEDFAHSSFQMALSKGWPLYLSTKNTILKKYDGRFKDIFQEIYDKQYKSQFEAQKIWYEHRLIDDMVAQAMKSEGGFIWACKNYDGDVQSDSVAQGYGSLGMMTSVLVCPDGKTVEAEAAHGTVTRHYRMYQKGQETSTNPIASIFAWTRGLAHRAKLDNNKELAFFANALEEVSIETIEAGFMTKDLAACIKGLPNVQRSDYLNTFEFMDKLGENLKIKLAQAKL
protocol: Inhibition of wildtype human recombinant IDH1 R132H mutant heterodimer in presence of alpha-ketoglutarate and NADPH by fluorescence based biochemical assay
experimental_readout: pIC50
By convention, pIC50 is the negative base-10 log of a molar concentration.

Challenge: Report pIC50 for COc1c(C)cc(NC(=O)c2nn(Cc3ccc(F)cc3)c3c2CN(C(=O)c2ccc[nH]2)C[C@@H]3C(N)=O)cc1C please.
Response given: 7.78

----------
assay_system: Isocitrate dehydrogenase [NADP] cytoplasmic (Homo sapiens, UniProt O75874, R132H)
protocol: Inhibition of human […] IDH1 R132H mutant expressed in Escherichia coli BL21 (DE3) cells incubated for 60 mins by fluorescence based analysis
experimental_readout: IC50

Worked examples follow.
mol	IC50
CC(C)(F)c1onc(-c2c(Cl)cccc2Cl)c1C(=O)n1cc2c3c(cccc31)/C(=C/C(=O)O)CC2	18 nM
Cc1cn(C(=O)c2c(-c3c(Cl)cc(Cl)cc3Cl)noc2C(C)(C)F)c2cccc(/C=C/C(=O)O)c12	8.4 nM

Challenge: Which IC50 value is on record for COC(C)(C)c1onc(-c2c(Cl)cc(Cl)cc2Cl)c1C(=O)n1ccc2c(/C=C/C(=O)O)cccc21 ?
Response given: 6 nM

Challenge: Item: C=CC(=O)N1CCC(c2onc(-c3c(Cl)cccc3Cl)c2C(=O)n2ccc3c(/C=C/C(=O)O)cccc32)CC1
Response given: 0.349 nM

Source: ChEMBL document CHEMBL5625159
